target: purified hACOD1 (Homo sapiens)
Sequence (A6NK06 whole entry): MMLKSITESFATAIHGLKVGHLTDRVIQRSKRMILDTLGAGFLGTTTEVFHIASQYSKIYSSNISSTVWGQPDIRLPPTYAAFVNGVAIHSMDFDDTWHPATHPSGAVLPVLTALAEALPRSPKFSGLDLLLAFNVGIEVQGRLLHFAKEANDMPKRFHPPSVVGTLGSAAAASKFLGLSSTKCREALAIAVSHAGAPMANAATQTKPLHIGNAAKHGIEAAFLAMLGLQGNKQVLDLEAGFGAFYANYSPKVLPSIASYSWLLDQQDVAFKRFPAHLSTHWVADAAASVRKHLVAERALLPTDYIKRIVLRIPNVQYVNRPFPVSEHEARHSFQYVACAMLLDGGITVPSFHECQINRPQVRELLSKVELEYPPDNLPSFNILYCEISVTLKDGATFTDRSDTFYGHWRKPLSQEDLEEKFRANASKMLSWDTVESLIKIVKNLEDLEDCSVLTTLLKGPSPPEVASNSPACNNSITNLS
readout-name: pKi
Answer as the number alone; pKi is minus log10 of concentration in mol/L.

CC/C(=C/C(=O)O)C(=O)O [(Z)-2-ethylbut-2-enedioic acid] has a reported pKi of 6.63

Hey, just so you know, these numbers are from patent US20240368065A1.
